Quick reference: DC50 of the listed items.
experimental-system: BCL6 (Homo sapiens, UniProt P41182)
Construct: endogenous in cells; host or cells: T47D breast cancer epithelial cells
protocol-details: Immunofluorescence protocol for high content imaging of BCL6 (degradation) in T47D cells, 3 days compound treatment
Type: cell-based
test-parameters: read-out: Mean DC50 (nM)* category
assay-readout: DC50

INSERT INTO measurements (molecule, value_measured) VALUES
  ('CNC(=O)COc1cc2cc(Nc3nc(N4CCC(O[C@H]5C[C@H](N6CCN(c7cc(C)c8c(c7)C(=O)N(C7CCC(=O)NC7=O)C8=O)CC6)C5)CC4)ncc3Cl)ccc2n(C(C)C)c1=O (stereo partly shown)', '10 to 50 nM'),
  ('CNC(=O)COc1cc2cc(Nc3nc(N4CCC(O[C@H]5C[C@H](N6CCN(c7ccc8c(c7F)CN([C@@H]7CCC(=O)NC7=O)C8=O)[C@H](C)C6)C5)CC4)ncc3Cl)ccc2n(C(C)C)c1=O', '< 10 nM'),
  ('CNC(=O)COc1cc2cc(Nc3nc(N4CCC(C(C)(C)N5CCC6(CC5)CN(c5c(OC)ccc7c5CN(C5CCC(=O)NC5=O)C7=O)C6)CC4)ncc3Cl)ccc2n(C(C)C)c1=O (stereo not shown)', '< 10 nM'),
  ('CNC(=O)COc1cc2c(F)c(Nc3cc(N4CCN(CC5CCC6(CC5)CN(c5cccc7c5C(=O)N(C5CCC(=O)NC5=O)C7=O)C6)CC4)ncc3Cl)ccc2n(C(C)C)c1=O (stereo not shown)', '< 10 nM'),
  ('CNC(=O)COc1cc2cc(Nc3nc(N4CCC(N5CCC56CN(C5CCN(c7ccc8c(c7)CN(C7CCC(=O)NC7=O)C8=O)C5)C6)CC4)ncc3Cl)ccc2n(C(C)C)c1=O (stereo not shown)', '< 10 nM'),
  ('CNC(=O)COc1cc2cc(Nc3nc(N4CCC(OC5CCC6(CC5)CN(c5ccc(F)c7c5CN(C5CCC(=O)NC5=O)C7=O)C6)CC4)ncc3Cl)ccc2n(C(C)C)c1=O (stereo not shown)', '< 10 nM'),
  ('CNC(=O)COc1cc2cc(Nc3nc(N4CCC(O[C@H]5C[C@H](N6CCN(c7ccc8c(c7Cl)CN([C@H]7CCC(=O)NC7=O)C8=O)[C@H](C)C6)C5)CC4)ncc3Cl)ccc2n(C(C)C)c1=O', '< 10 nM'),
  ('CNC(=O)COc1cc2cc(Nc3nc(N4CCC(O[C@H]5C[C@H](N6CC=C(c7ccc8c(c7F)CN(C7CCC(=O)NC7=O)C8=O)CC6)C5)CC4)ncc3Cl)ccc2n(C(C)C)c1=O (stereo partly shown)', '< 10 nM'),
  ('CNC(=O)COc1cc2cc(Nc3nc(N4CCC(CN5CCC6(CC5)CN(c5ccc7c(c5OC)CN(C5CCC(=O)NC5=O)C7=O)C6)CC4)ncc3Cl)ccc2n(C(C)C)c1=O (stereo not shown)', '< 10 nM'),
  ('CNC(=O)COc1cc2cc(Nc3nc(N4CCC(O[C@H]5C[C@H](N6CC7(CCN(c8ccc9c(c8)CN(C8CCC(=O)NC8=O)C9=O)C7)C6)C5)CC4)ncc3Cl)ccc2n(C(C)C)c1=O (stereo partly shown)', '< 10 nM'),
  ('CNC(=O)COc1cc2cc(Nc3cc(N4CCC(CN5CCC6(CC5)CN(c5ccc7c(c5)CN(C5CCC(=O)NC5=O)C7=O)C6)CC4)ncc3Cl)ccc2n(C(C)C)c1=O (stereo not shown)', '< 10 nM'),
  ('CNC(=O)COc1cc2cc(Nc3nc(N4CCC(O[C@H]5C[C@H](N6CCC(c7c(C)cc8c(c7F)CN(C7CCC(=O)NC7=O)C8=O)CC6)C5)CC4)ncc3Cl)ccc2n(C(C)C)c1=O (stereo partly shown)', '< 10 nM'),
  ('CNC(=O)COc1cc2cc(Nc3nc(N4CCC(O[C@H]5C[C@H](N6CCN(c7ccc8c(c7)CN([C@H]7CCC(=O)NC7=O)C8=O)C(C)(C)C6)C5)CC4)ncc3Cl)ccc2n(C(C)C)c1=O', '< 10 nM'),
  ('CNC(=O)COc1cc2cc(Nc3nc(N4CCC(O[C@H]5C[C@H](N6CCC(c7ccc8c(c7F)CN([C@H]7CCC(=O)NC7=O)C8=O)CC6)C5)CC4)ncc3Cl)ccc2n(C(C)C)c1=O', '< 10 nM'),
  ('CNC(=O)COc1cc2cc(Nc3nc(N4CCC(CN5CC(N6CCN(c7ccc8c(c7)C(=O)N(C7CCC(=O)NC7=O)C8=O)CC6)C5)CC4)ncc3Cl)ccc2n(C(C)C)c1=O (stereo not shown)', '10 to 50 nM'),
  ('CNC(=O)COc1cc2cc(Nc3nc(N4CCC(O[C@H]5C[C@H](N6CCN(c7cc(OC)c8c(c7)C(=O)N(C7CCC(=O)NC7=O)C8=O)CC6)C5)CC4)ncc3Cl)ccc2n(C(C)C)c1=O (stereo partly shown)', '< 10 nM'),
  ('CNC(=O)COc1cc2cc(Nc3nc(N4CCN(CC5CCC6(CC5)CN(c5ccc7c(c5)CN(C5CCC(=O)NC5=O)C7=O)C6)CC4)ncc3Cl)ccc2n(C(C)C)c1=O (stereo not shown)', '< 10 nM'),
  ('CNC(=O)COc1cc2cc(Nc3nc(N4CCC(CN5CC(N6CCN(c7ccc8c(c7)CN(C7CCC(=O)NC7=O)C8=O)CC6)C5)CC4)ncc3Cl)ccc2n(C(C)C)c1=O (stereo not shown)', '< 10 nM'),
  ('CNC(=O)COc1cc2cc(Nc3nc(N4CCC(O[C@H]5C[C@H](N6CCN(CC7CCN(c8ccc9c(c8F)CN(C8CCC(=O)NC8=O)C9=O)CC7)CC6)C5)CC4)ncc3Cl)ccc2n(C(C)C)c1=O (stereo partly shown)', '< 10 nM');
